test_description: Clearance in human liver microsomes
Type: ADME
condition_set: read-out: CLH
reported_metric: CLint scaled (mL/min/kg)

>>> readout_value("Cc1nc([C@@H]2CN(c3ncnc4[nH]cc(-c5cccc(C#N)c5)c34)CCO2)no1")
82
>>> readout_value("c1ccc(-c2c[nH]c3ncnc(N4CCOCC4)c23)cc1")
48
>>> readout_value("N#Cc1cccc(-c2c[nH]c3ncnc(N4CCCC4)c23)c1")
63
>>> readout_value("N#Cc1cc(-c2c[nH]c3ncnc(N4CCOCC4)c23)ccc1F")
44
>>> readout_value("C[C@@H]1CN(c2ncnc3[nH]cc(-c4cccc(C#N)c4)c23)CCO1")
48
>>> readout_value("N#CCC1CN(c2ncnc3[nH]cc(-c4cccc(C#N)c4)c23)CCO1 (centres undefined)")
22
>>> readout_value("N#Cc1cccc(-c2c[nH]c3ncnc(N4CCCOCC4)c23)c1")
52
>>> readout_value("N#Cc1cccc(-c2c[nH]c3ncnc(N4CCCCC4)c23)c1")
131
>>> readout_value("N#Cc1cncc(-c2c[nH]c3ncnc(N4CCOCC4)c23)c1")
9
>>> readout_value("N#Cc1cccc(-c2c[nH]c3ncnc(N4CC5COCC5C4)c23)c1 (centres undefined)")
56
>>> readout_value("CCN(CC)c1ncnc2[nH]cc(-c3cccc(C#N)c3)c12")
114
>>> readout_value("N#Cc1cccc(-c2c[nH]c3ncnc(N4CC5CCOC5C4)c23)c1 (centres undefined)")
57
>>> readout_value("Clc1cccc(-c2c[nH]c3ncnc(N4CCOCC4)c23)c1")
60

====

tested_system: Serine/threonine-protein kinase 3 (Homo sapiens, UniProt Q13188)
Sequence (Q13188 whole entry): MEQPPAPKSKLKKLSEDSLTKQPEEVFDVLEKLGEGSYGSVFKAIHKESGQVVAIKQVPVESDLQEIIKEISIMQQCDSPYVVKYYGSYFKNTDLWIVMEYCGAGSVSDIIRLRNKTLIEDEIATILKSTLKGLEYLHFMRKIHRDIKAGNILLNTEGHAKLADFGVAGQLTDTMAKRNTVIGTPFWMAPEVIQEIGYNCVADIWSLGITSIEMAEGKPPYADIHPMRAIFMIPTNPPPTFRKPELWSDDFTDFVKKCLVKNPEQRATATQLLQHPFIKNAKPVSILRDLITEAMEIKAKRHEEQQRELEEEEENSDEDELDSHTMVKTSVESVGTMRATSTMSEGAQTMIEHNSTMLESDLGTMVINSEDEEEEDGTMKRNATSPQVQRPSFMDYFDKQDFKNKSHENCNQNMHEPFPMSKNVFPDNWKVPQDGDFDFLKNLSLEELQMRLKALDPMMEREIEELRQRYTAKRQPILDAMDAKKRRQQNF
test_description: Inhibition of human recombinant MST2 using Ser/Thr peptide 7 substrate after 45 mins by Z-Lyte assay
This section presents molecules with their documented IC50 values.
reported_metric: IC50

>>> readout_value("Cc1noc(C2CN(c3ncnc4[nH]cc(-c5cccc(C#N)c5)c34)CCO2)n1 (stereo not drawn)")
"2390 nM"
>>> readout_value("Cc1nc([C@@H]2CN(c3ncnc4[nH]cc(-c5cccc(C#N)c5)c34)CCO2)no1")
"795 nM"
>>> readout_value("N#CCC1CN(c2ncnc3[nH]cc(-c4cccc(C#N)c4)c23)CCO1 (stereo not drawn)")
"196 nM"
>>> readout_value("Cc1nc([C@H]2CN(c3ncnc4[nH]cc(-c5cccc(C#N)c5)c34)CCO2)no1")
"3240 nM"
>>> readout_value("N#Cc1cccc(-c2c[nH]c3ncnc(N4CCOC(C#N)C4)c23)c1 (stereo not drawn)")
"288 nM"
>>> readout_value("N#Cc1cccc(-c2c[nH]c3ncnc(N4CCOC(c5ccno5)C4)c23)c1 (stereo not drawn)")
"1330 nM"
>>> readout_value("N#Cc1cccc(-c2c[nH]c3ncnc(N4CCOCC4)c23)c1")
"22 nM"
>>> readout_value("C[C@H]1CN(c2ncnc3[nH]cc(-c4cccc(C#N)c4)c23)CCO1")
"179 nM"
